Data credit: PubChem BioAssay AID1159580

The entries below are paired with their reported normalized growth.
method description: chemical genetic growth profiling, strain panel (AID 1159580);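 also: tested at 20 µM; growth read once vehicle control cultures reached saturation at 30 °C; 1 = growth at the plate median or of vehicle wells; lower values mean less growth of the strain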
assay setup: S. cerevisiae deletion strains, growth OD, locus YPR163C, strain tif3, stronger effect = lower value
Hit rate of the full screen: of about 5,500 compounds, about 2,000 (36%) were called active. Not shown: some 18% with an inconclusive outcome. This is one part of the list.
quantity measured: normalized growth

compound="CC1(C)C=CC(=O)[C@@]2(C)C1CC(=O)[C@]1(C)C2CC[C@@]2(C)[C@H](c3ccoc3)OC(=O)C3OC321 (stereo partly specified)" reported_result=0.956
compound="CC1(C)C2CC(=O)[C@]3(C)C(CC[C@@]4(C)[C@H](c5ccoc5)OC(=O)[C@H]5O[C@]543)[C@@]2(C)C(=O)C[C@H]1O (stereo partly specified)" reported_result=1.01
compound=CCCCCCCCCCCC1=C(O)C(=O)C=C(O)C1=O reported_result=0.977
compound="CC(=O)O[C@@H]1CC2C(C)(C)C(=O)C=C[C@]2(C)C2CC[C@@]3(C)[C@H](c4ccoc4)OC(=O)[C@H]4O[C@]43[C@@]21C (stereo partly specified)" reported_result=0.984
compound="CC(=O)O[C@@H]1CC(=O)[C@@]2(C)C(CC(=O)[C@]3(C)C2CC[C@@]2(C)[C@H](c4ccoc4)OC(=O)C4OC423)C1(C)C (stereo partly specified)" reported_result=1.01
compound=COc1ccccc1/C=C\C(=O)O reported_result=1.02
compound=O=C(O[C@@H]1Cc2c(O)cc(O)cc2O[C@@H]1c1cc(O)c(=O)c2c(O)c(O)cc([C@H]3Oc4cc(O)cc(O)c4C[C@H]3O)c2c1)c1cc(O)c(O)c(O)c1 reported_result=0.974
compound="CC1(C)C(=O)C=C[C@@]2(C)C1C[C@@H](O)[C@]1(C)C2CC[C@@]2(C)[C@H](c3ccoc3)OC(=O)[C@H]3O[C@]321 (stereo partly specified)" reported_result=0.98
compound=CC1(C)O[C@H]2CC(=O)OC[C@]23[C@H]2CC[C@@]4(C)[C@H](c5ccoc5)OC(=O)[C@H]5O[C@]54[C@]2(C)C(=O)C[C@@H]13 reported_result=1
compound="CNC(C)C(O)c1ccccc1 (stereo unspecified)" reported_result=1.04
compound="CC1(C)C2CC(=O)[C@]3(C)C(CC[C@@]4(C)[C@H](c5ccoc5)OC(=O)C5OC543)[C@@]2(C)[C@@H](O)C[C@H]1O (stereo partly specified)" reported_result=0.997
compound=COC(=O)c1c(C)cc(OC)cc1O reported_result=1
compound="O=C(OC1Cc2c(O)cc(O)cc2OC1c1cc(=O)c(O)c2c(O)c(O)cc(C3Oc4cc(O)cc(O)c4CC3O)c2c1)c1cc(O)c(O)c(O)c1 (stereo unspecified)" reported_result=0.969
compound=O=C(O[C@@H]1Cc2c(O)cc(O)cc2O[C@@H]1c1cc(O)c(=O)c2c(O)c(O)cc([C@H]3Oc4cc(O)cc(O)c4C[C@H]3OC(=O)c3cc(O)c(O)c(O)c3)c2c1)c1cc(O)c(O)c(O)c1 reported_result=1.02
compound=Cc1cc(OC(=O)c2c(C)cc(OC(=O)c3c(C)cc(O)cc3O)cc2O)cc(O)c1C(=O)O reported_result=1
compound="CC1(C)C(=O)C=C[C@@]2(C)C1C=C[C@]1(C)C2CC[C@@]2(C)[C@H](c3ccoc3)OC(=O)C3OC321 (stereo partly specified)" reported_result=0.938
